Molecular target: Triple specificity protein phosphatase PtpB (Mycobacterium tuberculosis (strain ATCC 25618 / H37Rv))
Sequence (I6WXK4 whole entry): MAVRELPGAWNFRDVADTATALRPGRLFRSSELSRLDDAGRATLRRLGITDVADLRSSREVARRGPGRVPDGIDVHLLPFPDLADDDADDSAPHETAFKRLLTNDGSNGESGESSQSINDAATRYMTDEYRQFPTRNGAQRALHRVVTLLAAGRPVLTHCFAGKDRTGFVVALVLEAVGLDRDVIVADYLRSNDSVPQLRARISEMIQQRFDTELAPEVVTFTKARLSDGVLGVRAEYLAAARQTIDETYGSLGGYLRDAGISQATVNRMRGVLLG
Assay: Inhibition of Mycobacterium tuberculosis H37Rv ptpB using pNPP as substrate preincubated for 10 mins followed by substrate addition and measured for 5 mins by spectrophotometer analysis
Property Measured: IC50 (µM)
Report the value in µM with no unit label.

Given item "O=C1NC(=S)NC(=O)C1Cc1cc(Br)ccc1OCc1ccc(Cl)cc1" , the value recorded as its IC50 is 22.4

====

Molecular target: Triple specificity protein phosphatase PtpB (Mycobacterium tuberculosis (strain ATCC 25618 / H37Rv)) (UniProt I6WXK4)
Sequence (I6WXK4 whole entry): as above
Assay: Inhibition of Mycobacterium tuberculosis H37Rv ptpB expressed in Escherichia coli BL21(DE3) at 10 uM using pNPP as substrate preincubated for 10 mins followed by substrate addition and measured for 5 mins by spectrophotometer analysis relative to control
Settings: time 15.0 min
Property Measured: inhibition (%)
Dear colleague, please return just the value in %, with no unit written.

| Sample Smiles | inhibition / % |
| --- | --- |
| CCCC[C@@H](C(=O)O)N1C(=O)/C(=C/c2ccc(-c3ccc(F)c(C(F)(F)F)c3)c3ccccc23)SC1=S | 105 |
| CCCC[C@@H](C(=O)O)N1C(=O)/C(=C/c2ccc(-c3cccc(Cl)c3)c3ccccc23)SC1=S | 99.9 |

Per the records, this molecule ( "CCCC[C@@H](C(=O)O)N1C(=O)/C(=C/c2ccc(-c3cccc(Cl)c3)cn2)SC1=S" ) has inhibition equal to 99.5

Item: "CCCC[C@@H](C(=O)O)N1C(=O)/C(=C/c2ccc(-c3cccc(Cl)c3)c(Cl)c2)SC1=S" | inhibition: 102

Given item "CCCC[C@@H](C(=O)O)N1C(=O)/C(=C/c2ccc(-c3cccc(Cl)c3)s2)SC1=S" , the value recorded as its inhibition is 99

inhibition in this record for "CCCC[C@@H](C(=O)O)N1C(=O)/C(=C/c2ccc(-c3cccc(C(F)(F)F)c3)c3ccccc23)SC1=S" : 98.6

Quick note, inhibition for "CCCC[C@@H](C(=O)O)N1C(=O)/C(=C/c2ccc(-c3cccc(C(F)(F)F)c3)c(Cl)c2)SC1=S" landed at 99.6
